Target: purified human autoBACE-2 (Homo sapiens (Human), UniProt Q9Y5Z0)
Sequence (Q9Y5Z0 63-473): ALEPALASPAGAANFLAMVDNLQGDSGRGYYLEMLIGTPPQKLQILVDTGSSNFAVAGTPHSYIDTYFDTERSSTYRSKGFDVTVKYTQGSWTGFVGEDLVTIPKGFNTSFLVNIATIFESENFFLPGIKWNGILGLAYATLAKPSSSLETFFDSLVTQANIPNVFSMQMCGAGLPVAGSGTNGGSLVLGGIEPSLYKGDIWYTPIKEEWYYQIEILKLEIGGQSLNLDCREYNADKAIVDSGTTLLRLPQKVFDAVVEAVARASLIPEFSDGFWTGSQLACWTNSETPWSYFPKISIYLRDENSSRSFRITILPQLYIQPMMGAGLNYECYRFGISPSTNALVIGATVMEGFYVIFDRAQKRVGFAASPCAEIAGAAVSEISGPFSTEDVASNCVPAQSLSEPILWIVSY
Experiment: BACE-2 Assay (BACE-HTRF assay)
Format: biochemical
Conditions: Ki calculated from IC50 using the Cheng-Prusoff equation; read-out: BACE2 Ki
METRIC: Ki (nM)

# COMPOUND, OBS VALUE
data = [
    ("CC(F)(F)C(=O)Nc1cc(F)c(F)c([C@]2(C)CS(=O)(=O)C(C)(C)C(=N)N2)c1 [Example 9bl]", 40),
]

P = CC1(C)C(=N)N[C@](C)(c2cc(NC(=O)c3ccno3)ccc2F)CS1(=O)=O [Example 9ax]
Q = CC1(C)C(=N)N[C@](C)(c2cc(-c3cc(F)cc(-c4nnco4)c3)ccc2F)CS1(=O)=O [Example 16a]
Hey, which is lower on measured Ki, P or Q ? Answer by quoting the chosen item's label.
P
(P: 22 nM, Q: 445 nM)
